# Condition summary: in cyclohexane, 303.15 K
Observable: solubility (mole fraction)
When you answer, write just the number.

Entry under review: CC1(C)[C@H](C(=O)O)[C@@H]1/C=C(\Cl)C(F)(F)F (racemic) . Reported solubility (mole fraction)?
0.00821

====

# Condition summary: in methanol, 283.15 K
Observable: solubility (mole fraction)
Returns: the value as a bare number; no unit string appended.

Field request: solubility (mole fraction) | item: CC1(C)[C@H](C(=O)O)[C@@H]1/C=C(\Cl)C(F)(F)F (racemic)
0.058

====

# Condition summary: in n-butanol, 303.15 K
Observable: solubility (mole fraction)
Form: value (number only, do not type unit).

May I ask what solubility (mole fraction) has been recorded for CC1(C)[C@H](C(=O)O)[C@@H]1/C=C(\Cl)C(F)(F)F (racemic) ?
0.129
